Assay: Displacement of [3H]GX-545 Nav1.7 (unknown origin) expressed in HEK cells by liquid scintillation counting based radioligand competition assay
pIC50: −log10 of the molar value.
Below, each entry is listed alongside its reported pIC50.
MEASURED_ENDPOINT: pIC50

> print(dat)
                                   compound  observed.measurement
1  O=C(NS(=O)(=O)C1COC1)c1cc(C2CC2)c(OCC23CC4CC(CC(C4)C2)C3)cc1F                  8.40
2  CS(=O)(=O)NC(=O)c1cc(C2CC2)c(OCC2CCN(C(=O)c3cc(Cl)cc(Cl)c3)CC2)cc1F [US9546164, 253]                  8.01
3  O=C(NS(=O)(=O)C1CC1)c1cc(C2CC2)c(OCC23CC4CC(CC(C4)C2)C3)cc1F [US8952169, 148]                  8.96
4  CS(=O)(=O)NC(=O)c1cc(C2CC2)c(OCC2CCN(C(c3ccccc3)c3ccccc3)CC2)cc1F                  8.44
5  CC(C)(c1cc(Cl)cc(Cl)c1)N1CCC(COc2cc(F)c(C(=O)NS(C)(=O)=O)cc2C2CC2)CC1 [US9546164, 209]                  9.10
6  CS(=O)(=O)NC(=O)c1cc(C2CC2)c(OCC2CCN(Cc3cc(Cl)cc(Cl)c3)CC2)cc1F [US9546164, 139]                  8.62
7  O=C(NS(=O)(=O)N1CCOCC1)c1cc(C2CC2)c(OCC23CC4CC(CC(C4)C2)C3)cc1F [US8952169, 155]                  8.64

###

Experiment: Displacement of [3H]GX-545 Nav1.7 (unknown origin) expressed in HEK cells by liquid scintillation counting based radioligand competition assay
pIC50: −log10 of the molar value.
MEASURED_ENDPOINT: pIC50

> print(dat)
                                   compound  observed.measurement
1  CS(=O)(=O)NC(=O)c1cc(C2CC2)c(OCC2CCN(Cc3ccccc3)CC2)cc1F                  6.85
2  CS(=O)(=O)NC(=O)c1cc(C2CC2)c(OCC2CN(C(c3ccccc3)c3ccccc3)C2)cc1F [US8952169, 440]                  8.26
3  CS(=O)(=O)NC(=O)c1cc(C2CC2)c(OCC2CCN(Cc3ccc(OC(F)(F)F)cc3)CC2)cc1F [US9546164, 135]                  8.11
4  O=C(NS(=O)(=O)N1CCCC1)c1cc(C2CC2)c(OCC23CC4CC(CC(C4)C2)C3)cc1F [US8952169, 154]                  8.66
5  CS(=O)(=O)NC(=O)c1cc(C2CC2)c(OCC2CCN(Cc3ccc(Cl)cc3)CC2)cc1F [US9546164, 104]                  7.66

###

Experiment: Inhibition of human Nav1.7 expressed in HEK293 cells incubated for 1 hr in presence of veratridine by sodium influx assay
pIC50: −log10 of the molar value.
Below, each entry is listed alongside its reported pIC50.
MEASURED_ENDPOINT: pIC50

> print(dat)
                  compound.structure.string  measured.endpoint  observed.measurement
1  O=C(NS(=O)(=O)C1CC1)c1cc(C2CC2)c(OCC23CC4CC(CC(C4)C2)C3)cc1F              pIC50                  7.85
2  CS(=O)(=O)NC(=O)c1cc(C2CC2)c(OCC2CCN(C(c3ccccc3)c3ccccc3)CC2)cc1F              pIC50                  7.18
3  CS(=O)(=O)NC(=O)c1cc(C2CC2)c(OCC2CCN(Cc3ccc(Cl)cc3)CC2)cc1F              pIC50                  7.38
4  CS(=O)(=O)NC(=O)c1cc(C2CC2)c(OCC2CN(C(c3ccccc3)c3ccccc3)C2)cc1F              pIC50                  7.64
5  O=C(NS(=O)(=O)C1COC1)c1cc(C2CC2)c(OCC23CC4CC(CC(C4)C2)C3)cc1F              pIC50                  7.42
6  CS(=O)(=O)NC(=O)c1cc(C2CC2)c(OCC2CCN(Cc3ccccc3)CC2)cc1F              pIC50                  5.49
7  CS(=O)(=O)NC(=O)c1cc(C2CC2)c(OCC2CCN(Cc3cc(Cl)cc(Cl)c3)CC2)cc1F              pIC50                  6.92
8  O=C(NS(=O)(=O)N1CCCC1)c1cc(C2CC2)c(OCC23CC4CC(CC(C4)C2)C3)cc1F              pIC50                  6.80
